Measured koff, listed per entry for reference.
Target: T1, human C5 R885H-mmh (human, UniProt P01031 19-1676)
T1 construct: also called human C5 variant R885H
Experiment: SPR, mAb captured via anti-hFc, 37C
Kindly report the value followed by its unit.

[[record]]
binder = "H4H12164P (antibody, human IgG4, V domains shown, Human IgG4 Fc with S108P hinge mutation (H4H)) VH: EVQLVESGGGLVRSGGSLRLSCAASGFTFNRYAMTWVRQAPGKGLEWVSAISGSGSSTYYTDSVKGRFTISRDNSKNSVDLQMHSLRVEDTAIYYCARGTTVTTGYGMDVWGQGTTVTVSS VL: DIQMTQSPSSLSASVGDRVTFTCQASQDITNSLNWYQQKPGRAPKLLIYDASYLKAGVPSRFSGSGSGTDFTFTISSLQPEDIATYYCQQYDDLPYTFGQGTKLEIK"
property_name = "koff"
assay_value = "0.00106 s⁻¹"

[[record]]
binder = "H4H12170P (antibody, human IgG4, V domains shown, Human IgG4 Fc with S108P hinge mutation (H4H)) VH: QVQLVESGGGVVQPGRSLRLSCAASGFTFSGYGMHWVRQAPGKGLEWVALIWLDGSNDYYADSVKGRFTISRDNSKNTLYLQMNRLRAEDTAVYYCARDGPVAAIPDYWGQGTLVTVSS VL: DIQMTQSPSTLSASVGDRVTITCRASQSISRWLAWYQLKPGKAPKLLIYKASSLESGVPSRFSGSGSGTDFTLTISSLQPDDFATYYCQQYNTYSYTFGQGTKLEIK"
property_name = "koff"
assay_value = "0.000839 s⁻¹"

[[record]]
binder = "H4H12171P (antibody, human IgG4, V domains shown, Human IgG4 Fc with S108P hinge mutation (H4H)) VH: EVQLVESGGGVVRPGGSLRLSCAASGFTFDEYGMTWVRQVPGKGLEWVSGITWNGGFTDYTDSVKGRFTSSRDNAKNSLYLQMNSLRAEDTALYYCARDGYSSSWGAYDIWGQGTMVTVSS VL: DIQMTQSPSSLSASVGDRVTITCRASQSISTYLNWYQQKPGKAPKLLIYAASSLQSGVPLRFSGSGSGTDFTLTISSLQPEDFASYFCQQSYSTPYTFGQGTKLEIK"
property_name = "koff"
assay_value = "0.000963 s⁻¹"


Query: Dear colleague, I am looking for the recorded koff of the following binder: H4H12167P (antibody, human IgG4, V domains shown, Human IgG4 Fc with S108P hinge mutation (H4H)) VH: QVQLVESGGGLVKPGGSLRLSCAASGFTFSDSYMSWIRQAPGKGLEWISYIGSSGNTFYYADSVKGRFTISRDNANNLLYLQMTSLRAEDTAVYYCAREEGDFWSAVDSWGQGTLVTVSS VL: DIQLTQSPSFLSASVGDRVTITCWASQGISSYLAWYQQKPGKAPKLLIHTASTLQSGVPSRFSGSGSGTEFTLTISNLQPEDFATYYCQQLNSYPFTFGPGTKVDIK
Result: 0.00257 s⁻¹

Query: Dear colleague, I am looking for the recorded koff of the following binder: H4H12161P (antibody, human IgG4, V domains shown, Human IgG4 Fc with S108P hinge mutation (H4H)) VH: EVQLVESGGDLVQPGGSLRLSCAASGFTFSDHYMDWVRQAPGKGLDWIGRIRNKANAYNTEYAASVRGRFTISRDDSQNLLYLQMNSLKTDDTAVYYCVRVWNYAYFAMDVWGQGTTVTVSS VL: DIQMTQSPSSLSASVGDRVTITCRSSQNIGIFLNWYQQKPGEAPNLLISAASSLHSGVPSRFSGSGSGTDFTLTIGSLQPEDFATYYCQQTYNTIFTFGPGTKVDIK
Result: 0.000925 s⁻¹

// provenance: patent US20170355757A1
